Consider the following molecules; for each one, report its pIC50.
subject-of-test: ERβ (Homo sapiens, UniProt Q92731)
assay-comment: Luciferase reporter gene assay (transactivation), U2OS cells transfected with pSG5-ERβ
Type: cell-based
test-conditions: inhibition of E2-induced (0.3 nM) transactivation
Sequence (Q92731 whole entry, the tested form may be a part): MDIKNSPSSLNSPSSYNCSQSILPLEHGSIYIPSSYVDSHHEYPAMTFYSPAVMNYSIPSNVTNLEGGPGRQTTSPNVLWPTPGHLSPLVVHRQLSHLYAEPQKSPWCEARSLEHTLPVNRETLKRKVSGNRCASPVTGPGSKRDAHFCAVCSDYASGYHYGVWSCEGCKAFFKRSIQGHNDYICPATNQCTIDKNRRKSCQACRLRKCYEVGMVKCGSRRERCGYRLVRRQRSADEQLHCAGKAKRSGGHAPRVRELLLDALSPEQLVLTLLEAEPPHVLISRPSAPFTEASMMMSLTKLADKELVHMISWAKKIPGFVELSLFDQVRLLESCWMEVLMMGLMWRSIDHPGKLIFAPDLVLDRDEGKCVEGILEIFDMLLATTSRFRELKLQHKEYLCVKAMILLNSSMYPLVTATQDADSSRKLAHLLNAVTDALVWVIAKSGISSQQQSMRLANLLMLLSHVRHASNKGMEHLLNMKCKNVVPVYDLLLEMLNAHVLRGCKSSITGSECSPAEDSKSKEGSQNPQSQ
One number for each entry, as −log10 of the molar value.

Take each entry in turn and give its pIC50.
1. CCC(=C(c1ccc(O)cc1)c1ccc(/C=C/C(=O)NCCCNC(=O)CCc2nc3ccc(OC)cc3[nH]2)cc1)c1ccccc1 (mixture of isomers)
2. CCC(=C(c1ccc(O)cc1)c1ccc(/C=C/C(=O)NCCCCCCNC(=O)CCc2nc3cc(O)ccc3[nH]2)cc1)c1ccccc1 (mixture of isomers)
3. CCC(=C(c1ccc(O)cc1)c1ccc(/C=C/C(=O)NCCCNC(=O)CCCn2c(=S)[nH]c3ccccc3c2=O)cc1)c1ccccc1 (mixture of isomers)
4. CCC(=C(c1ccc(O)cc1)c1ccc(/C=C/C(=O)NCCCNC(=O)c2ccc(N3CCN(C(=O)CCCCCCCn4c(=S)[nH]c5ccccc5c4=O)CC3)cc2)cc1)c1ccccc1 (mixture of isomers)
5. CCC(=C(c1ccc(O)cc1)c1ccc(/C=C/C(=O)NCCCCCNC(=O)CCc2nc3ccc(OC)cc3[nH]2)cc1)c1ccccc1 (mixture of isomers)
6. CCC(=C(c1ccc(O)cc1)c1ccc(/C=C/C(=O)NCCNC(=O)CCc2nc3cc(OC)ccc3[nH]2)cc1)c1ccccc1 (mixture of isomers)

## Result
1: 7.57; 2: 7.79; 3: 8.39; 4: 6.80; 5: 8.05; 6: 8.17

---

What % ERα remaining [1 μM] was measured for each of the following?
subject-of-test: ERα (Homo sapiens, UniProt P03372)
assay-comment: In-Cell Western immunoassay, ERα levels in MCF-7 cells
Type: cell-based
test-conditions: MCF-7 cells, 24 h, 1 μM, compared to the solvent control (DMSO)
Don't forget the unit after the number, please.

Check out these entries, answers already filled in.
molecule | % ERα remaining [1 μM]
CCC(=C(c1ccc(O)cc1)c1ccc(/C=C/C(=O)NCCCNC(=O)c2ccc(N3CCN(C(=O)CCCn4c(=S)[nH]c5ccccc5c4=O)CC3)cc2)cc1)c1ccccc1 (mixture of isomers) [Compound 17] | 5.5 ± 5.0%
CCC(=C(c1ccc(O)cc1)c1ccc(/C=C/C(=O)NCCNC(=O)CCc2nc3cc(O)ccc3[nH]2)cc1)c1ccccc1 (mixture of isomers) [Compound 39] | 99.2 ± 3.5%

Please state % ERα remaining [1 μM] for every molecule in the list that follows.
1. CCC(=C(c1ccc(O)cc1)c1ccc(/C=C/C(=O)O)cc1)c1ccccc1 (mixture of isomers) [GW7604, reference compound]
2. CCC(=C(c1ccc(O)cc1)c1ccc(/C=C/C(=O)NCCCCCNC(=O)CCc2nc3ccc(OC)cc3[nH]2)cc1)c1ccccc1 (mixture of isomers) [Compound 36]
3. CCC(=C(c1ccc(O)cc1)c1ccc(/C=C/C(=O)NCCNC(=O)CCc2nc3cc(OC)ccc3[nH]2)cc1)c1ccccc1 (mixture of isomers) [Compound 31]
4. CCC(=C(c1ccc(O)cc1)c1ccc(/C=C/C(=O)NCCCNC(=O)CCc2nc3ccc(OC)cc3[nH]2)cc1)c1ccccc1 (mixture of isomers) [Compound 32]

## Result
["44.3 ± 12.1%", "130.0 ± 15.1%", "113.8 ± 4.3%", "120.3 ± 31.6%"]

---

subject-of-test: ERα (Homo sapiens, UniProt P03372)
assay-comment: In-Cell Western immunoassay, ERα levels in MCF-7 cells
Assay type: cell-based
test-conditions: MCF-7 cells, 24 h, 1 μM, compared to the solvent control (DMSO)
outcome-measure: % ERα remaining [1 μM] (%)
Numbers only, in %.

Previously resolved entries follow.
compound | subject-of-test | outcome-measure | value-units | value-reported
CCC(=C(c1ccc(O)cc1)c1ccc(/C=C/C(=O)NCCCCCCNC(=O)CCc2nc3cc(OC)ccc3[nH]2)cc1)c1ccccc1 (mixture of isomers) | ERα (Homo sapiens, UniProt P03372) | % ERα remaining [1 μM] | % | 101.8
CCC(=C(c1ccc(O)cc1)c1ccc(/C=C/C(=O)NCCCCNC(=O)CCc2nc3cc(OC)ccc3[nH]2)cc1)c1ccccc1 (mixture of isomers) | ERα (Homo sapiens, UniProt P03372) | % ERα remaining [1 μM] | % | 132.9

Proceed to the following item.
## Task Returns the measured % ERα remaining [1 μM] for the input compound. Input: CCC(=C(c1ccc(O)cc1)c1ccc(/C=C/C(=O)NCCCCCNC(=O)CCc2nc3cc(O)ccc3[nH]2)cc1)c1ccccc1 (mixture of isomers)
## Result 92.0

---

Give measured pIC50 for each item. Keep answers brief.
subject-of-test: ERβ (Homo sapiens, UniProt Q92731)
test-conditions: read-out: TR-FRET ERβ IC50; displacement of fluorescent-labeled E2 from the LBD of ERβ
Sequence (Q92731 264-498 limits assumed): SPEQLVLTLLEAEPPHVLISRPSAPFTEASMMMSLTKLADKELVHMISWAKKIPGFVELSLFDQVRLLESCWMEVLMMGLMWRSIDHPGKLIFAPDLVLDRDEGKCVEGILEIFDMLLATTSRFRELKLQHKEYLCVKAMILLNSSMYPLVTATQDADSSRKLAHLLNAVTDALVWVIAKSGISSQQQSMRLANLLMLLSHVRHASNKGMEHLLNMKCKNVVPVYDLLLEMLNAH
Numbers only, as −log10 of the molar value.

Examples from the recorded data:
compound | subject-of-test | pIC50
CCC(=C(c1ccc(O)cc1)c1ccc(/C=C/C(=O)NCCCNC(=O)c2ccc(N3CCN(C(=O)CCCCCCCn4c(=S)[nH]c5ccccc5c4=O)CC3)cc2)cc1)c1ccccc1 (mixture of isomers) | ERβ (Homo sapiens, UniProt Q92731) | 8.17
CCC(=C(c1ccc(O)cc1)c1ccc(/C=C/C(=O)NCCCCCCNC(=O)CCc2nc3cc(O)ccc3[nH]2)cc1)c1ccccc1 (mixture of isomers) | ERβ (Homo sapiens, UniProt Q92731) | 8.11

Now for another entry.
## Task Looking for the measured pIC50 of CCC(=C(c1ccc(O)cc1)c1ccc(/C=C/C(=O)NCCCCCCNC(=O)CCc2nc3cc(OC)ccc3[nH]2)cc1)c1ccccc1 (mixture of isomers) , can you help?
## Result 8.28

---

Test system: MCF-7TamR cells
assay-comment: Crystal violet assay, MCF-7TamR cells
Format: cell-based

compound | subject-of-test | T/Ccorr MCF-7TamR
CCC(=C(c1ccc(O)cc1)c1ccc(/C=C/C(=O)NCCCNC(=O)CCCn2c(=S)[nH]c3ccccc3c2=O)cc1)c1ccccc1 (mixture of isomers) [Compound 15] | MCF-7TamR cells | about 40%
CCC(=C(c1ccc(O)cc1)c1ccc(/C=C/C(=O)NCCCCCCNC(=O)CCc2nc3cc(OC)ccc3[nH]2)cc1)c1ccccc1 (mixture of isomers) [Compound 38] | MCF-7TamR cells | about 40%
CCC(=C(c1ccc(O)cc1)c1ccc(/C=C/C(=O)O)cc1)c1ccccc1 (mixture of isomers) [GW7604, reference compound] | MCF-7TamR cells | 68%
CCC(=C(c1ccc(O)cc1)c1ccc(/C=C/C(=O)NCCCNC(=O)c2ccc(N3CCN(C(=O)CCCn4c(=S)[nH]c5ccccc5c4=O)CC3)cc2)cc1)c1ccccc1 (mixture of isomers) [Compound 17] | MCF-7TamR cells | about 40%

---

What IC50 was measured for each of the following?
subject-of-test: ERα (Homo sapiens, UniProt P03372)
Sequence (P03372 1-595): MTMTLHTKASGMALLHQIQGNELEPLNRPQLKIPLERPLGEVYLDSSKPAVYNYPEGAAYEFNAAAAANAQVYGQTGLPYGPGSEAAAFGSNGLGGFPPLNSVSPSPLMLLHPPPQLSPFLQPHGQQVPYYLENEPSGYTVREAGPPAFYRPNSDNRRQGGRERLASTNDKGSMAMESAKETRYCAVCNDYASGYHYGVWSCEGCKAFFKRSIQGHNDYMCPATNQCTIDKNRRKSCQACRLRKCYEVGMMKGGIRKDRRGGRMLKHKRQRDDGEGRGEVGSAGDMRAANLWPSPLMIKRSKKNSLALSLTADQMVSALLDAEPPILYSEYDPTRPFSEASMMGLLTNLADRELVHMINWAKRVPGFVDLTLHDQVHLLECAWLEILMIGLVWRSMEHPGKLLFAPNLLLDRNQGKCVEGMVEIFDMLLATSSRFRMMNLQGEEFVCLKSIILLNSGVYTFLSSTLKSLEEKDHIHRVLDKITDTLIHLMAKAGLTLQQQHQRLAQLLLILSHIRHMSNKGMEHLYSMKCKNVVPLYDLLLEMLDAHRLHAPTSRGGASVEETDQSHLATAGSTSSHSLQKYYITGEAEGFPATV
assay-comment: Luciferase reporter gene assay (transactivation), U2OS cells transfected with pSG5-ERα
Type: cell-based
test-conditions: inhibition of E2-induced (0.03 nM) transactivation
Numbers only, in nM.

Guide cases for IC50, answers given:
compound | IC50 [nM]
CCC(=C(c1ccc(O)cc1)c1ccc(/C=C/C(=O)NCCCNC(=O)CCc2nc3ccc(OC)cc3[nH]2)cc1)c1ccccc1 (mixture of isomers) | 21.5
CCC(=C(c1ccc(O)cc1)c1ccc(/C=C/C(=O)NCCCNC(=O)CCCn2c(=S)[nH]c3ccccc3c2=O)cc1)c1ccccc1 (mixture of isomers) | 30.2
CCC(=C(c1ccc(O)cc1)c1ccc(/C=C/C(=O)NCCCCCCNC(=O)CCc2nc3cc(OC)ccc3[nH]2)cc1)c1ccccc1 (mixture of isomers) | 9.4
CCC(=C(c1ccc(O)cc1)c1ccc(/C=C/C(=O)NCCCCCNC(=O)CCc2nc3ccc(OC)cc3[nH]2)cc1)c1ccccc1 (mixture of isomers) | 9.2
CCC(=C(c1ccc(O)cc1)c1ccc(/C=C/C(=O)NCCCCNC(=O)CCc2nc3cc(OC)ccc3[nH]2)cc1)c1ccccc1 (mixture of isomers) | 34.5
CCC(=C(c1ccc(O)cc1)c1ccc(/C=C/C(=O)NCCCNC(=O)c2ccc(N3CCN(C(=O)CCCn4c(=S)[nH]c5ccccc5c4=O)CC3)cc2)cc1)c1ccccc1 (mixture of isomers) | 104

I'm hoping you can list IC50 for every compound here, please.
1. CCC(=C(c1ccc(O)cc1)c1ccc(/C=C/C(=O)NCCCCCNC(=O)CCc2nc3cc(O)ccc3[nH]2)cc1)c1ccccc1 (mixture of isomers)
2. CCC(=C(c1ccc(O)cc1)c1ccc(/C=C/C(=O)NCCCNC(=O)c2ccc(N3CCN(C(=O)CCCCCCCn4c(=S)[nH]c5ccccc5c4=O)CC3)cc2)cc1)c1ccccc1 (mixture of isomers)
3. CCC(=C(c1ccc(O)cc1)c1ccc(/C=C/C(=O)NCCNC(=O)CCc2nc3cc(O)ccc3[nH]2)cc1)c1ccccc1 (mixture of isomers)

## Result
1: 30.9; 2: 914; 3: 26
